Would you mind telling me the reported pIC50 of each entry?
# Test system: proTGFβ1 presented by endogenous LTBP1/3 in LN229 cells
# Sequence (P01137 30-390): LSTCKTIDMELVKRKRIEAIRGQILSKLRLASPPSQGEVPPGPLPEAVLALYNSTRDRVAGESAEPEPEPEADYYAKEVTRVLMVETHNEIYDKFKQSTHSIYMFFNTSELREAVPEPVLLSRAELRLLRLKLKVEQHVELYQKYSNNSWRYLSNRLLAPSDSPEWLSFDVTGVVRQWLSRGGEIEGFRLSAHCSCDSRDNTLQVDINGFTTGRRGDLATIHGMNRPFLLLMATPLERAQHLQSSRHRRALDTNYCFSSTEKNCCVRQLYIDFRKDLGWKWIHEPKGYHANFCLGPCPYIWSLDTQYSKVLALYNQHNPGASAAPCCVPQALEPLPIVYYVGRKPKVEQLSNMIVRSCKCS
# experimental-protocol: Endogenous LTBP caga assay: LN229 cells transfected with human proTGFβ1 only, CAGA12 luciferase reporter cells
# Format: cell-based
# recorded-conditions: Table 20: protocol of Example 10 with Fabs (RefAb also as hIgG4), assay format not stated
Numbers only, as −log10 of the molar value.

1) SR-AB41 Fab (antibody, V domains shown) VH: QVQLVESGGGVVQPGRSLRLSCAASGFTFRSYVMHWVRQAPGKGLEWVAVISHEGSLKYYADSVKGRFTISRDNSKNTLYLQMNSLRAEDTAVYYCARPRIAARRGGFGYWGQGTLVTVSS VL: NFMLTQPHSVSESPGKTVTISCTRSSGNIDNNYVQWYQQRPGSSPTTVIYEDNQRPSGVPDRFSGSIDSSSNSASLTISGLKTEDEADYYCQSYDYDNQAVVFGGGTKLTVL :: 9.31

For every record below, what is its pIC50?
1. SR-AB54 Fab (antibody, V domains shown) VH: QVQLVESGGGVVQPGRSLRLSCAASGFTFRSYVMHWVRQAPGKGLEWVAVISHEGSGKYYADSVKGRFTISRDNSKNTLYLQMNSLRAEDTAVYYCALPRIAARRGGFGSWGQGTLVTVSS VL: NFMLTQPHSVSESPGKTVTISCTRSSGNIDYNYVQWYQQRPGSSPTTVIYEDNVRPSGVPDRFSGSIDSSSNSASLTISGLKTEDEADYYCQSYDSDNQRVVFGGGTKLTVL
2. SR-AB23 Fab (antibody, V domains shown) VH: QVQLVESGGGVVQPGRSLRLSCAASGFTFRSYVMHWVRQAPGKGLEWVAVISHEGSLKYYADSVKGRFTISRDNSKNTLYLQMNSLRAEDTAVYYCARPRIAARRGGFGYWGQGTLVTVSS VL: NFMLTQPHSVSESPGKTVTISCTRSSGNIDNNYVQWYQQRPGSSPTTVIYEDNQRPSGVPDRFSGSIDSSSNSASLTISGLKTEDEADYYCQSYDSDNQGVVFGGGTKLTVL

A)
1: 8.23; 2: 8.07
